- TARGET_OR_SYSTEM: ATP-dependent Clp protease proteolytic subunit (Escherichia coli (strain K12))
- TEST_SUMMARY: Inhibition of Escherichia coli C-terminal His6-tagged ClpP expressed Escherichia coli SG1146a at 200 uM using Suc-LY-AMC as substrate preincubated for 10 mins followed by substrate addition and measured over 1 hr by fluorescence assay relative to control
Use YES when the recorded inhibition is no lower than 10%; use NO when it is lower.

| COMPOUND | CLASSIFICATION |
| --- | --- |
| O=C(NC(Cc1ccc(O)cc1)P(=O)(O)Oc1ccccc1)OCc1ccccc1 (centres undefined) | YES |
| N=C(N)N1CCC(C(NS(=O)(=O)CCOc2ccccc2)P(=O)(Oc2ccccc2)Oc2ccccc2)CC1 (centres undefined) | YES |
| COC(=O)NC(c1cccc(N)c1)P(=O)(Oc1ccccc1)Oc1ccccc1 (centres undefined) | NO |
| C#CCCCOC(=O)NC(Cc1ccc(NC(=N)N)cc1)P(=O)(Oc1ccccc1)Oc1ccccc1 (centres undefined) | YES |
| COC(=O)NC(c1cccc(N)c1)P(=O)(Oc1ccc(NC(C)=O)cc1)Oc1ccc(NC(C)=O)cc1 (centres undefined) | YES |
| O=C(NC(CCc1ccccc1)P(=O)(Oc1ccccc1)Oc1ccccc1)OCc1ccccc1 (centres undefined) | NO |
| N#C[C@H](Cc1ccc(O)cc1)NC(=O)OCc1ccccc1 | NO |
| CC(NC(=O)OCc1ccccc1)P(=O)(Oc1ccccc1)Oc1ccccc1 (centres undefined) | NO |
| CN(C)c1ccc(C(NC(=O)OCc2ccccc2)P(=O)(Oc2ccccc2)Oc2ccccc2)c2ccccc12 (centres undefined) | NO |

====

- TARGET_OR_SYSTEM: ATP-dependent Clp protease proteolytic subunit (Escherichia coli (strain K12))
- TEST_SUMMARY: Inhibition of Escherichia coli C-terminal His6-tagged ClpP expressed Escherichia coli SG1146a at 200 uM using Suc-LY-AMC as substrate preincubated for 10 mins followed by substrate addition and measured over 1 hr by fluorescence assay relative to control
VALUE_KIND: inhibition (%)

| COMPOUND | TARGET_OR_SYSTEM | VALUE_KIND | CENSORING_QUALIFIER | QUANTITATIVE_RESULT |
| --- | --- | --- | --- | --- |
| N=C(N)Nc1ccc(C(NC(=O)OCc2ccccc2)P(=O)(Oc2ccccc2)Oc2ccccc2)cc1 (centres undefined) | ATP-dependent Clp protease proteolytic subunit (Escherichia coli (strain K12)) | inhibition | = | 29 |
| Nc1ccc2cc(C(NC(=O)OCc3ccccc3)P(=O)(Oc3ccccc3)Oc3ccccc3)ccc2c1 (centres undefined) | ATP-dependent Clp protease proteolytic subunit (Escherichia coli (strain K12)) | inhibition | < | 1 |
| O=C(NC(c1c[nH]c2ccc(Cl)cc12)P(=O)(Oc1ccccc1)Oc1ccccc1)OCc1ccccc1 (centres undefined) | ATP-dependent Clp protease proteolytic subunit (Escherichia coli (strain K12)) | inhibition | = | 88 |
| O=C(NC(c1ccc2c(c1)OCO2)P(=O)(Oc1ccccc1)Oc1ccccc1)OCc1ccccc1 (centres undefined) | ATP-dependent Clp protease proteolytic subunit (Escherichia coli (strain K12)) | inhibition | = | 6 |
| N=C(N)N1CCC(C(NC(=O)/C=C\c2ccccc2)P(=O)(Oc2ccccc2)Oc2ccccc2)CC1 (centres undefined) | ATP-dependent Clp protease proteolytic subunit (Escherichia coli (strain K12)) | inhibition | = | 11 |
| CSCCC(NC(=O)[C@H](CCCCN)NC(=O)OCc1ccccc1)P(=O)(Oc1ccccc1)Oc1ccccc1 (some centres undefined) | ATP-dependent Clp protease proteolytic subunit (Escherichia coli (strain K12)) | inhibition | = | 4 |
| NCCOc1ccc(C(NC(=O)OCc2ccccc2)P(=O)(Oc2ccccc2)Oc2ccccc2)cc1 (centres undefined) | ATP-dependent Clp protease proteolytic subunit (Escherichia coli (strain K12)) | inhibition | = | 15 |
| CN(C)C(=O)Nc1ccc(CC(NC(=O)OCc2ccccc2)P(=O)(Oc2ccccc2)Oc2ccccc2)cc1 (centres undefined) | ATP-dependent Clp protease proteolytic subunit (Escherichia coli (strain K12)) | inhibition | = | 9 |
| COC(=O)NC(Cc1ccc(NC(=N)N)cc1)P(=O)(Oc1ccccc1)Oc1ccccc1 (centres undefined) | ATP-dependent Clp protease proteolytic subunit (Escherichia coli (strain K12)) | inhibition | = | 27 |

These entries and their values trace back to ChEMBL document CHEMBL4371075.
